// provenance: patent US10780174B2

assay.info: In vitro degradation of lipid-linked prodrugs in LNP, mouse plasma
Type: in vitro ADME
condition.description: LNP, 1 h, 37° C., mouse plasma
measured.property: prodrug cleavage/degradation after 1 h in plasma

Solved cases below.
compound	assay.value
CCCCC/C=C\C/C=C\CCCCCCCC(=O)OCC(COC(=O)CCC(=O)O[C@@H](C(=O)O[C@H]1C[C@@]2(O)[C@@H](OC(=O)c3ccccc3)[C@@H]3[C@]4(OC(C)=O)CO[C@@H]4C[C@H](O)[C@@]3(C)C(=O)[C@H](O)C(=C1C)C2(C)C)[C@@H](NC(=O)OC(C)(C)C)c1ccccc1)OC(=O)CCCCCCC/C=C\C/C=C\CCCCC (some centres unmarked) [LD10-DTX]	largely not degraded
CCCCC/C=C\C/C=C\CCCCCCCC(=O)OC(COC(=O)CCC(=O)OCC(=O)[C@@]1(O)[C@H](C)C[C@H]2[C@@H]3CCC4=CC(=O)C=C[C@]4(C)[C@@]3(F)[C@@H](O)C[C@@]21C)CN(C)C (some centres unmarked) [LD01-DEX]	significant cleavage
CCCCCCCC/C=C\CCCCCCCC(=O)OCC(COC(=O)CCC(=O)O[C@@H](C(=O)O[C@H]1C[C@@]2(O)[C@@H](OC(=O)c3ccccc3)[C@@H]3[C@]4(OC(C)=O)CO[C@@H]4C[C@H](O)[C@@]3(C)C(=O)[C@H](O)C(=C1C)C2(C)C)[C@@H](NC(=O)OC(C)(C)C)c1ccccc1)OC(=O)CCCCCCC/C=C\CCCCCCCC (some centres unmarked) [LD23-DTX]	largely not degraded
CCCCCCCCCCCCCCCCOC(=O)CCC(=O)OCC(=O)[C@@]1(O)[C@H](C)C[C@H]2[C@@H]3CCC4=CC(=O)C=C[C@]4(C)[C@@]3(F)[C@@H](O)C[C@@]21C [LD14-DEX]	partially degraded
CCCCC/C=C\C/C=C\CCCCCCCCOC(=O)CCC(=O)OCC(=O)[C@@]1(O)[C@H](C)C[C@H]2[C@@H]3CCC4=CC(=O)C=C[C@]4(C)[C@@]3(F)[C@@H](O)C[C@@]21C [LD03-DEX]	significant cleavage

Q: Determine from records and report prodrug cleavage/degradation after 1 h in plasma for CCCCCCCC/C=C\CCCCCCCCOC(=O)CCC(=O)OCC(=O)[C@@]1(O)[C@H](C)C[C@H]2[C@@H]3CCC4=CC(=O)C=C[C@]4(C)[C@@]3(F)[C@@H](O)C[C@@]21C [LD13-DEX]
Ans: partially degraded

Q: Determine from records and report prodrug cleavage/degradation after 1 h in plasma for CCCCCCCC/C=C\CCCCCCCCOC(=O)CCC(=O)O[C@@H](C(=O)O[C@H]1C[C@@]2(O)[C@@H](OC(=O)c3ccccc3)[C@@H]3[C@]4(OC(C)=O)CO[C@@H]4C[C@H](O)[C@@]3(C)C(=O)[C@H](O)C(=C1C)C2(C)C)[C@@H](NC(=O)OC(C)(C)C)c1ccccc1 [LD18-DTX]
Ans: largely not degraded

Q: Determine from records and report prodrug cleavage/degradation after 1 h in plasma for CCCCCCCCCCCCCC(=O)OCC(COC(=O)CCC(=O)O[C@@H](C(=O)O[C@H]1C[C@@]2(O)[C@@H](OC(=O)c3ccccc3)[C@@H]3[C@]4(OC(C)=O)CO[C@@H]4C[C@H](O)[C@@]3(C)C(=O)[C@H](O)C(=C1C)C2(C)C)[C@@H](NC(=O)OC(C)(C)C)c1ccccc1)OC(=O)CCCCCCCCCCCCC (some centres unmarked) [LD22-DTX]
Ans: largely not degraded
